Target: CREB-binding protein (Homo sapiens, UniProt Q92793)
Assay: Binding affinity to human His-tagged CREBBP expressed in Escherichia coli BL21(DE3) cells at 100 uM by SYPRO orange staining based fluorescence thermal shift assay
Sequence (Q92793 2-2442 limits assumed): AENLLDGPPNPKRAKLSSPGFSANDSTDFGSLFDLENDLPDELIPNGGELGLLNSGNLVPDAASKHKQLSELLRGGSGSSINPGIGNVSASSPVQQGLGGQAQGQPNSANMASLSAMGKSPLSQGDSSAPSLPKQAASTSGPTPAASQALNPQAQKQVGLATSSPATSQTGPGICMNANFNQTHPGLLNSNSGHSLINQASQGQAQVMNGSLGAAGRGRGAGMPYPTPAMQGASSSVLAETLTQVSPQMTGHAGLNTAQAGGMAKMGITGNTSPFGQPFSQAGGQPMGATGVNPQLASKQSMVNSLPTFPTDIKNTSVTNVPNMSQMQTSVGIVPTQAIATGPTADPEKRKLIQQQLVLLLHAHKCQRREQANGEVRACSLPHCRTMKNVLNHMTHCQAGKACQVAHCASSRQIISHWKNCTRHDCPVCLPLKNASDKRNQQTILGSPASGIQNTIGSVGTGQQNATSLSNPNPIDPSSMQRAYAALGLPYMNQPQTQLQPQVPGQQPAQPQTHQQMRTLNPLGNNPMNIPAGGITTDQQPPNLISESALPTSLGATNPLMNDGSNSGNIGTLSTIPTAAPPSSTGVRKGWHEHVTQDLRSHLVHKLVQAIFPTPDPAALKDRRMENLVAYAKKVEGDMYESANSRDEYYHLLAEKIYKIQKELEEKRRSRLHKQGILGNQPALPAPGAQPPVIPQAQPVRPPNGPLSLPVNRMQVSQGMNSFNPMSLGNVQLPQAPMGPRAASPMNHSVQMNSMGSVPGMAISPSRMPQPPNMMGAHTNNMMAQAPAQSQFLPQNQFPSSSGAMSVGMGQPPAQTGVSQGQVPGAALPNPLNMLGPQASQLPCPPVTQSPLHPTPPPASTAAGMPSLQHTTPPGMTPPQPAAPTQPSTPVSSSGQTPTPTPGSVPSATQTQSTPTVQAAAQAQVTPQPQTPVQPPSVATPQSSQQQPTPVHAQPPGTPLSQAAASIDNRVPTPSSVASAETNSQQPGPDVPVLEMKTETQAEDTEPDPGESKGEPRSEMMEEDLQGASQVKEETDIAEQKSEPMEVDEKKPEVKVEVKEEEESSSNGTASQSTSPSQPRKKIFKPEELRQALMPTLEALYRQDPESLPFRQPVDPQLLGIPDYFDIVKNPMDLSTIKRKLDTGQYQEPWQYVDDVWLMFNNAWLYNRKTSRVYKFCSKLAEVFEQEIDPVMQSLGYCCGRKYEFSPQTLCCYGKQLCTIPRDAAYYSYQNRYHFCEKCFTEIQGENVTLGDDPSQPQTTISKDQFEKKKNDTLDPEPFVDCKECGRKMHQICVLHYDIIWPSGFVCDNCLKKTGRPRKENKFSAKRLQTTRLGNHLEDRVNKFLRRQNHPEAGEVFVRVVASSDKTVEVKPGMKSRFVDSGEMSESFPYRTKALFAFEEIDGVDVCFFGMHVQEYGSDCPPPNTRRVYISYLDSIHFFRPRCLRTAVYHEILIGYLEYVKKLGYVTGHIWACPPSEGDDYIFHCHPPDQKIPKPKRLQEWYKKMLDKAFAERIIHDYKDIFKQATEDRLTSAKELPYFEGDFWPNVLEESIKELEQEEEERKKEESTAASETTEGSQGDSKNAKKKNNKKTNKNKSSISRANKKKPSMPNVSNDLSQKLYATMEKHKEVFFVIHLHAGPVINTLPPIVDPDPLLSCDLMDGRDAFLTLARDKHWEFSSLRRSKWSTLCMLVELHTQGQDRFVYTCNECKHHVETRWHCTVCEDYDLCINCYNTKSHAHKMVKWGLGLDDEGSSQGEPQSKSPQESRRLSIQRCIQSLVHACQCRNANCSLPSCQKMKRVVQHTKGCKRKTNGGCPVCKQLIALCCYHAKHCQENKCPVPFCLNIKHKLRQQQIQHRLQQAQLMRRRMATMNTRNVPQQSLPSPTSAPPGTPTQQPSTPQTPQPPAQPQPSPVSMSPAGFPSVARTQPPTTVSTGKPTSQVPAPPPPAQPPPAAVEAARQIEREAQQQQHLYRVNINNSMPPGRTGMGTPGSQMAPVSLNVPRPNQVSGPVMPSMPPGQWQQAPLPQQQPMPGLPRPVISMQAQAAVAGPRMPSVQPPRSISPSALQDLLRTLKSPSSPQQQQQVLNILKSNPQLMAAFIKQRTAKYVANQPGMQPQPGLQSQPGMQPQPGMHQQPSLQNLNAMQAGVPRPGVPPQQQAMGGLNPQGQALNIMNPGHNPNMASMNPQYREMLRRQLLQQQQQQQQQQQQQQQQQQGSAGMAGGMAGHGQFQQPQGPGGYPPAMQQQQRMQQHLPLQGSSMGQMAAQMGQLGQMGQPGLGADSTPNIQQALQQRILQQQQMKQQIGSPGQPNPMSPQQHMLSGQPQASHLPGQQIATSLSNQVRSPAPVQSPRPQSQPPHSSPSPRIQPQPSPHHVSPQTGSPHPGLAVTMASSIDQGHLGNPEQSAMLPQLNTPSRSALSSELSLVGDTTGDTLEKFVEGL
OBSERVABLE: ΔTm (°C)
Dear colleague, please return just the value in °C, with no unit written.

Consider the following illustrative entries.
CCOc1ccc(C(C)=O)cc1NC(=O)c1cc(COC2CCCCO2)cc(C(=O)O)c1 (centres undefined) : 6
CC(=O)c1ccc(C)c(NC(=O)/C=C/C(=O)O)c1 : 0.2

Lab note: measured ΔTm of CC(=O)c1ccc(F)c(NC(=O)/C=C/C(=O)O)c1 was -0.1

Lab note: measured ΔTm of CC(=O)c1ccc(OCC2CC2)c(NC(=O)c2cccc(C(=O)O)c2)c1 was 3.4

Lab note: measured ΔTm of CCOc1ccc(C(C)=O)cc1NC(=O)c1ccccc1C(=O)O was 1.9

----------
Molecular target: CREB-binding protein (Homo sapiens)
Assay: Competitive binding affinity to human His-tagged CREBBP expressed in T7 phage-infected Escherichia coli BL21(DE3) cells incubated for 1 hr by bromoscan assay
Sequence (Q92793 whole entry): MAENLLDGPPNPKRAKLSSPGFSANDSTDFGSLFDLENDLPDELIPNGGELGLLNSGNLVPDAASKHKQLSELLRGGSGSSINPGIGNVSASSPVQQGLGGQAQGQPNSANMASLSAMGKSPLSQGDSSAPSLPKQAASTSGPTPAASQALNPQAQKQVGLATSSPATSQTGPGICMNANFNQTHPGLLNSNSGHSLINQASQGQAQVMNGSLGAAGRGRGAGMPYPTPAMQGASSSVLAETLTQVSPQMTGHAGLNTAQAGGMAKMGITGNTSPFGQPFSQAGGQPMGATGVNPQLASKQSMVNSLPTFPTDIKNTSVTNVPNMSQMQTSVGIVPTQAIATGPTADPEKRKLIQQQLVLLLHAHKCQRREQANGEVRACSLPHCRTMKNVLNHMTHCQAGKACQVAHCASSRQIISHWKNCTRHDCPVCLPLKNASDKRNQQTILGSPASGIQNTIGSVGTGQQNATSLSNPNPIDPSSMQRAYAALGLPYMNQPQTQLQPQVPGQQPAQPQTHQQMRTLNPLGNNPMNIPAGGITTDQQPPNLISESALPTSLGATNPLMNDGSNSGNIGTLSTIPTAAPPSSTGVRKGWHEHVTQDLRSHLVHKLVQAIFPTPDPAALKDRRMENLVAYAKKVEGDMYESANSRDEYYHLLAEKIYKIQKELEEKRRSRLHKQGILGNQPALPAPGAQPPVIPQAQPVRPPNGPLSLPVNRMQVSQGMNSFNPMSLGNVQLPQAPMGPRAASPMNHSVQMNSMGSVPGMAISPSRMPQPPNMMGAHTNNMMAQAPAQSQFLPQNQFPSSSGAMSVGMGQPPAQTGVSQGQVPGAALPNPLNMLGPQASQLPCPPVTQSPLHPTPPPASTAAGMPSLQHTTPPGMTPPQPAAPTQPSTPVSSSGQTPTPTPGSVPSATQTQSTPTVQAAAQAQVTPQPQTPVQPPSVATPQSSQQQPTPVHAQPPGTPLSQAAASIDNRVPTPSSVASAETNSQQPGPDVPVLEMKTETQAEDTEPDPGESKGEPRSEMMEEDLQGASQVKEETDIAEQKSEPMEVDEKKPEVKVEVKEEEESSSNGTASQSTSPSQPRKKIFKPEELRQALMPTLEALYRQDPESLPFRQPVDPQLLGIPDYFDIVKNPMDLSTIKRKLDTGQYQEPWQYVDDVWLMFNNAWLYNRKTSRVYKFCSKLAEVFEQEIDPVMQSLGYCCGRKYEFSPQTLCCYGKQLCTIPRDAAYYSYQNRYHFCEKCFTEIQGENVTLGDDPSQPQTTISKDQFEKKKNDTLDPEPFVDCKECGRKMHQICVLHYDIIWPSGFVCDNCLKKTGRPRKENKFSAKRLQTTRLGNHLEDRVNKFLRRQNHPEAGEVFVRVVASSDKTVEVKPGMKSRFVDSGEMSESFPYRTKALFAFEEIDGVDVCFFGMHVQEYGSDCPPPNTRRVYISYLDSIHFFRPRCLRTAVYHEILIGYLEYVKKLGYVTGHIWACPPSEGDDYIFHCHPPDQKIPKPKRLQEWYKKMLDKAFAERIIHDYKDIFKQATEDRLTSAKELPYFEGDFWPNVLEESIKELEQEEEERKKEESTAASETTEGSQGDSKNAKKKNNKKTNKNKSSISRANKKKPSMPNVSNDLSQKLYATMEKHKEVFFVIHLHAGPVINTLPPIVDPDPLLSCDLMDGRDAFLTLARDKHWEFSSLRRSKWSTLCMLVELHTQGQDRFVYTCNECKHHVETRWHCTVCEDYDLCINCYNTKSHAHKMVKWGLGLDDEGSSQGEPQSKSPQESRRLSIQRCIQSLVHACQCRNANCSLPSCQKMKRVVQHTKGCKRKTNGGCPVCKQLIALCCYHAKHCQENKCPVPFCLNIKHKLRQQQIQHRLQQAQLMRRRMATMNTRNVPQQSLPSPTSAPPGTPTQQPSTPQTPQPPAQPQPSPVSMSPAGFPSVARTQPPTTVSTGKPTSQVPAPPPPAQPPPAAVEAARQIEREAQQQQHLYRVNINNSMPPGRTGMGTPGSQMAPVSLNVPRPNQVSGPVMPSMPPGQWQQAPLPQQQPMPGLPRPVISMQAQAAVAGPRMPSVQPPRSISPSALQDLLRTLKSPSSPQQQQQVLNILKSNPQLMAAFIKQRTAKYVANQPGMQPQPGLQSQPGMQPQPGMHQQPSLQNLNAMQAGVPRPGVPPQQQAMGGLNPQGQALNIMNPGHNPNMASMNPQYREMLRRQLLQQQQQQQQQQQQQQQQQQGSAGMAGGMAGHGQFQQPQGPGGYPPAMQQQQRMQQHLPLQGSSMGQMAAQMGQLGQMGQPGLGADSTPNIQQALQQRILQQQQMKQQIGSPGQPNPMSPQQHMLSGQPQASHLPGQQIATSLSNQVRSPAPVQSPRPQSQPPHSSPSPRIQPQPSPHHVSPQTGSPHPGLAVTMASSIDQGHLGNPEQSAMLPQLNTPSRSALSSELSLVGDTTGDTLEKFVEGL
pKd: −log10 of the molar value.
Threshold check on pKd: at or above 6 gives rule met, strictly below gives rule not met.

Below are worked cases with known answers.
CCOc1ccc(C(C)=O)cc1NC(=O)c1cccc(C(=O)OC)c1 : rule met
CC(=O)c1cccc(NC(=O)c2c(-n3cnnn3)sc(C)c2C)c1 : rule not met
CCOc1ccc(C(C)=O)cc1NC(=O)/C=C/C(=O)O : rule not met
CCOc1ccc(C(=O)NC)cc1NC(=O)c1cccc(C(=O)O)c1 : rule not met
CCOc1ccc(C(C)=O)cc1C(=O)Nc1cccc(C(=O)O)c1 : rule not met
CCOc1ccc(C(C)=O)cc1NC(=O)c1cc(C(=O)O)cc(-c2ccoc2)c1 : rule met
CCOc1ccc(C(C)=O)cc1NC(=O)c1cc(COC2CCCCO2)cc(C(=O)O)c1 (centres undefined) : rule met

Next compound, please.
State whether the measured pKd reaches 6, counting equality as reaching it, for CCOc1ccc(C(C)=O)cc1NC(=O)c1cc(COC)cc(C(=O)O)c1
rule met

----------
# pIC50 per record follows
Molecular target: CREB-binding protein (Homo sapiens)
Assay: Inhibition of human recombinant GST-tagged CREBBP using non acetylated ligand 1 as substrate incubated for 2 hrs by TR-FRET assay
pIC50: −log10 of the molar value.

The compound CCOc1ccc(C(C)=O)cc1NC(=O)C1CC1C(=O)O (centres undefined) on CREB-binding protein (Homo sapiens): pIC50 was < 4.00

----------
Biological target: CREB-binding protein (Homo sapiens, UniProt Q92793)
Assay: Binding affinity to human His-tagged CREBBP expressed in Escherichia coli BL21(DE3) cells at 100 uM by SYPRO orange staining based fluorescence thermal shift assay
OBSERVABLE: ΔTm (°C)
Dear colleague, please return just the value in °C, with no unit written.

Consider the following illustrative entries.
CCOc1ccc(C(C)=O)cc1NC(=O)c1cc(COC)cc(C(=O)O)c1 : 5.1
CCOc1ccc(C(=O)NC)cc1NC(=O)c1cccc(C(=O)O)c1 : 1.1
CCOc1ccc(C(C)=O)cc1NC(=O)/C=C/C(=O)O : 1.8
CC(=O)c1ccc(C2CC2)c(NC(=O)c2cccc(C(=O)O)c2)c1 : 3.1
CCOc1ccc(C(C)=O)cc1NC(=O)c1cc(C(=O)O)cc(-c2ccoc2)c1 : 5.2

Lab note: measured ΔTm of CCOc1ccc(C(C)=O)cc1C(=O)Nc1cccc(C(=O)O)c1 was 3.4

Lab note: measured ΔTm of CCOc1ccc(C(C)=O)cc1NC(=O)c1cccc(C(=O)OC)c1 was 2.8

Lab note: measured ΔTm of CCOc1ccc(C(C)=O)cc1NC(=O)c1cc(CO)cc(C(=O)O)c1 was 3.8

Lab note: measured ΔTm of CCOc1ccc(C(C)=O)cc1NC(=O)c1cccc(NS(=O)(=O)c2ccccc2)c1 was 0.5

Lab note: measured ΔTm of CCOc1ccc(C(C)=O)cc1NC(=O)c1cccc(-n2cnnn2)c1 was 3.3

Lab note: measured ΔTm of COc1ccc(C(C)=O)cc1NC(=O)/C=C/C(=O)O was 1.1

Lab note: measured ΔTm of CCCOc1ccc(C(C)=O)cc1NC(=O)c1cccc(C(=O)O)c1 was 3.8

Lab note: measured ΔTm of CC(=O)c1cccc(NC(=O)/C=C/C(=O)O)c1 was 0.1

Lab note: measured ΔTm of CCOc1ccc(C(C)=O)cc1NC(=O)c1cccc(C(=O)O)c1 was 3.8

Lab note: measured ΔTm of CC(=O)c1ccc(OCc2ccccc2)c(NC(=O)c2cccc(C(=O)O)c2)c1 was 3.3

Lab note: measured ΔTm of CCOc1ccc(C(C)=O)cc1NC(=O)C1CC1C(=O)O (centres undefined) was 1.1

Lab note: measured ΔTm of CC(=O)c1ccc(OCC(C)C)c(NC(=O)c2cccc(C(=O)O)c2)c1 was 3.5

Lab note: measured ΔTm of CCOc1ccc(C(C)=O)cc1NC(=O)c1cccc(S(=O)(=O)Nc2ccccc2)c1 was 0

Lab note: measured ΔTm of CC(=O)c1ccc(N2CCOCC2)c(NC(=O)c2cccc(C(=O)O)c2)c1 was 1.4

----------
Target: CREB-binding protein (Homo sapiens, UniProt Q92793)
Assay: Inhibition of human recombinant GST-tagged CREBBP using non acetylated ligand 1 as substrate incubated for 2 hrs by TR-FRET assay
pIC50: −log10 of the molar value.
OBSERVABLE: pIC50

Consider the following illustrative entries.
CC(=O)c1ccc(F)c(NC(=O)/C=C/C(=O)O)c1 : < 4.00
CCOc1ccc(C(C)=O)cc1NC(=O)c1cccc(S(=O)(=O)Nc2ccccc2)c1 : < 5.00

Here's the next entry for you.
Lab note: measured pIC50 of CC(=O)c1ccc(C)c(NC(=O)/C=C/C(=O)O)c1 was < 4.00

// data source = ChEMBL document CHEMBL3769355
